Listing of entries alongside the reported chromatographic logP.
# TEST DESCRIPTION: log P determination by HPLC on reversed-phase C18 columns (OECD Guideline 117)
# Assay type: physicochemical
# CONDITION: reversed-phase C18 HPLC column; acidic range, pH 2.7, 0.1% aqueous formic acid / acetonitrile; read-out: logP value (HCOOH)
The answer should be written as a number, with no unit following it.

> print(dat)
                         chemical.structure  recorded.number
1  O=C(/N=c1\ccccn1-c1ccc(C(F)(F)F)nc1)C(F)(F)F             2.19
2              N#C/N=c1\ccccn1-c1ccc(Br)nc1             1.07
3               Cc1ccc(-n2cccc/c2=N\C#N)cn1             0.46
4              N#Cc1cccn(-c2ccc(Cl)nc2)c1=O                1

Consider now this further molecule.
I have this molecule here, FC(F)(F)c1ccc(-n2ccccc2=S)cn1 , and I need its recorded chromatographic logP.
1.7

###

Listing of entries alongside the reported chromatographic logP.
# TEST DESCRIPTION: log P determination by HPLC on reversed-phase C18 columns (OECD Guideline 117)
# Assay type: physicochemical
# CONDITION: reversed-phase C18 HPLC column; acidic range, pH 2.7, 0.1% aqueous formic acid / acetonitrile; read-out: logP value (HCOOH)
The answer should be written as a number, with no unit following it.

Please review the following examples before continuing.
> print(dat)
                                   molecule    measured.attribute  recorded.number
1  O=c1ccccn1-c1ccc(C(F)(C(F)(F)F)C(F)(F)F)nc1  chromatographic logP              2.4
2         O=c1ccccn1-c1ccc(-n2cnc(Cl)n2)nc1  chromatographic logP             1.23
3  O=c1ccccn1-c1ccc(Cl)nc1 [IV-14, 6′-chloro-[1(2H),3′-bipyridin]-2-one]  chromatographic logP             0.67
4  O=C(/C=C1\C=CC=CN1c1ccc(C(F)(F)F)nc1)C(F)(F)F  chromatographic logP              2.2
5      O=c1ccccn1-c1ccc(C(F)(F)C(F)(F)F)nc1  chromatographic logP             1.94
6  O=c1ccccn1-c1ccc(Br)nc1 [IV-2, 6′-Bromo-[1(2H), 3′-bipyridin]-2-one]  chromatographic logP             0.95

I have this molecule here, N#C/N=c1\ccccn1-c1ccc(F)nc1 , and I need its recorded chromatographic logP.
0.7

I have this molecule here, Cc1ccc(-n2ccccc2=S)cn1 [VI-1, 6′-Methyl-[1(2H),3′-bipyridine]-2-thione] , and I need its recorded chromatographic logP.
0.51

I have this molecule here, O=c1ccccn1-c1ccc(C(F)(F)F)nc1 , and I need its recorded chromatographic logP.
1.26

###

# TEST DESCRIPTION: log P determination by HPLC on reversed-phase C18 columns (OECD Guideline 117)
# Assay type: physicochemical
# CONDITION: acidic range, pH 2.7, 0.1% aqueous formic acid / acetonitrile; read-out: logP value (HCOOH)
MEASURED ATTRIBUTE: chromatographic logP
The answer should be written as a number, with no unit following it.

I have this compound here, O=c1ccccn1-c1ccc(C(F)(F)C(F)(F)C(F)(F)F)nc1 , and I need its recorded chromatographic logP.
2.26
